The origin of these recorded values is patent US20260297085A1.

biological target: JAK2 kinase activity on STAT5 in TF1 cells (Homo sapiens); assay: pSTAT5 cell assay (MSD; TF1 cells, 30 ng/mL IL-3 stimulation); assay type: cell-based; conditions: 30 ng/mL IL-3, 15 minutes
Sequence (O60674 whole entry): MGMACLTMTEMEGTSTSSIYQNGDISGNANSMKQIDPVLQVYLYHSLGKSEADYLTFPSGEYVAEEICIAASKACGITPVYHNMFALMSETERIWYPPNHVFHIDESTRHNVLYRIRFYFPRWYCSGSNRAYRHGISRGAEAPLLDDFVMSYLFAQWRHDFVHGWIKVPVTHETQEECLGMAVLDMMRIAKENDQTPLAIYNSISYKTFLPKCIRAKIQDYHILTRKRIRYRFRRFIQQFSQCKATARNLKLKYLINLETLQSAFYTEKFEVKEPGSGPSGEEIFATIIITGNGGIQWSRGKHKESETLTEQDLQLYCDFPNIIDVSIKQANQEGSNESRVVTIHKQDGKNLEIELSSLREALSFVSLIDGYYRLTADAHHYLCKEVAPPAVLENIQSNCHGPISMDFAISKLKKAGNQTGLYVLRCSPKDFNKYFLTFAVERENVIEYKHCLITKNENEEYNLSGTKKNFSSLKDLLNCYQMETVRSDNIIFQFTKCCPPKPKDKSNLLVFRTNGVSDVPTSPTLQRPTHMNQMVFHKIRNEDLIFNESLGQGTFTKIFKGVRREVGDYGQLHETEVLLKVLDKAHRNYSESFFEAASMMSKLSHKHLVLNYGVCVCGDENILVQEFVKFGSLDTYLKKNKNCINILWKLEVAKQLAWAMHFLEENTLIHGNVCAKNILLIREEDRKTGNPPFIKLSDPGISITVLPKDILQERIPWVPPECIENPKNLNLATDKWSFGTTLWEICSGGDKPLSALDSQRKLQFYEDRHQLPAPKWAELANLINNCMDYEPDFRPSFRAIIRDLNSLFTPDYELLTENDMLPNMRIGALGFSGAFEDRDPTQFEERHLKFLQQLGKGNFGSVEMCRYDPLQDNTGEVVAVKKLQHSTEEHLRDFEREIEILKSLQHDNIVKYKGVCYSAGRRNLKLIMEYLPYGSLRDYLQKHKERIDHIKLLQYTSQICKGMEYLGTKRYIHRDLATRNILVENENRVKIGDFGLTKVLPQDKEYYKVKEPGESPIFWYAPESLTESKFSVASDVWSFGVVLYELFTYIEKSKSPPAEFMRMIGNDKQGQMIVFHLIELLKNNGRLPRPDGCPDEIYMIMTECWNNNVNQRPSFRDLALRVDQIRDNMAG
pIC50: −log10 of the molar value. Structures can show the parent of a compound that is named as a salt.
reported-metric: pIC50

INPUT: For the compound C[C@@H]1CN(c2ccnn3cc(-c4cc5n(n4)CCO5)cc23)C(=O)[C@]1(C#N)C1CC1 [Example 110, trifluoroacetate] , what pIC50 is on record?
OUTPUT: < 5.00

INPUT: And C[C@@H]1CN(c2nc(-c3cnn(C4COC4)c3)cn3nccc23)C(=O)[C@]1(C#N)C1CC1 [Example 251] ?
OUTPUT: 6.00 to 7.00

INPUT: // query: C[C@@H]1CN(c2nc(-c3cnn(C4CC5(COC5)C4)c3)cn3ncc(F)c23)C(=O)[C@]1(C#N)C1CC1 [Example 298]
OUTPUT: 6.00 to 7.00

INPUT: Now the compound C[C@@H]1CN(c2ccnn3cc(-c4cnn(C5CCCCC5)c4)cc23)C(=O)[C@]1(C#N)C1CC1 [Example 169]
OUTPUT: 5.30 to 6.00

INPUT: Field entry: C[C@@H]1CN(c2ccnn3cc(-c4ccc(C(=O)N(C)C)cn4)cc23)C(=O)[C@]1(C#N)C1CC1 [Example 124, trifluoroacetate]
OUTPUT: 5.00 to 5.30

INPUT: Also C[C@@H]1CN(c2nc(-c3ccc(=O)n(C)c3)cn3nccc23)C(=O)[C@]1(C#N)C1CC1 [Example 245] ?
OUTPUT: 5.30 to 6.00

INPUT: Next entry: C[C@@H]1CN(c2ccnn3cc(-c4ccc(C#N)nc4)cc23)C(=O)[C@]1(C#N)C1CC1 [Example 86, trifluoroacetate]
OUTPUT: < 5.00

###

Exercise: state measured IC50 for each of the compounds provided.
Biological target: human JAK3 kinase domain (JH1) (Homo sapiens, UniProt P52333)
Construct: recombinantly generated catalytic kinase (also known as JH1) domain of human JAK1, JAK2, JAK3 and TYK2
Sequence (P52333 822-1111 limits assumed): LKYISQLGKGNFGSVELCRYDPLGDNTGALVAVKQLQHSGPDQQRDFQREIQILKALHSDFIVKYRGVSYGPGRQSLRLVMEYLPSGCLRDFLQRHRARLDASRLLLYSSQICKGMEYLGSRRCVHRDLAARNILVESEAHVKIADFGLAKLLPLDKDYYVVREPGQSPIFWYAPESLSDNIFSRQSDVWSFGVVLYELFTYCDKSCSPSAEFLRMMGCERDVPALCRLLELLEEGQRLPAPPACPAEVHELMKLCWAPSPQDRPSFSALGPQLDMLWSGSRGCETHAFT
Test: JH1 biochemical assay for JAK3 (ADP-Glo kinase assay, recombinant JH1 catalytic domain, JAK3-974 peptide, 4 μM ATP)
Settings: JAK3 JH1, ADP-Glo
Method: Compounds of the disclosure were assessed for their ability to inhibit TYK2, JAK1, JAK2, and JAK3 activity. The inhibitory properties of the compounds of the disclosure described herein can be evidenced by testing in any one of the following protocols. The kinase activity of recombinantly generated catalytic kinase (also known as JH1) domain of human JAK1, JAK2, JAK3 and TYK2 were evaluated in a plate-based assay using the ADP-Glo™ Kinase Assay platform. […]
Counter-ions that a name gives are not always drawn.

INPUT: Any idea what its IC50 is? The compound is C[C@@H]1CN(c2ccnn3cc(-c4cnn(CC5(C)COC5)c4)cc23)C(=O)[C@]1(C#N)C1CC1
OUTPUT: < 100 nM

INPUT: Would you kindly repeat that for Cc1cnn(-c2cc3c(N4C[C@@H](C)[C@@](C#N)(C5CC5)C4=O)ccnn3c2)n1 ?
OUTPUT: > 10000 nM

INPUT: Param item: C[C@@H]1CN(c2nc(-c3cnn(C4COC4)c3)cc3ncsc23)C(=O)[C@]1(C#N)C1CC1
OUTPUT: < 100 nM

INPUT: Subsequent entry: C[C@@H]1CN(c2cc(-c3cnn(C)c3)cc3nccn23)C(=O)[C@]1(C#N)C1CC1
OUTPUT: > 10000 nM

INPUT: Repeat for the following compound: Cc1c(-c2cn3ncc(F)c3c(N3C[C@@H](C)[C@@](C#N)(C4CC4)C3=O)n2)cnn1C
OUTPUT: 100 to 1000 nM

INPUT: Entry to check: CC(C)n1cc(-n2nc(N3C[C@@H](C)[C@@](C#N)(C4CC4)C3=O)c3ccncc32)cn1
OUTPUT: 100 to 1000 nM

INPUT: Quick one: C[C@@H]1CN(c2ccnn3cc(-c4cnn(C5CC6(C5)CN(C)C6)c4)cc23)C(=O)[C@]1(C#N)C1CC1
OUTPUT: < 100 nM

INPUT: Request: Cc1cnn(-c2cc3c(N4C[C@@H](C)[C@@](C#N)(C5CC5)C4=O)ccnn3c2)c1
OUTPUT: 100 to 1000 nM

INPUT: Quick one: C[C@@H]1CN(c2nc(-c3cnn(C)c3)cc3ncsc23)C(=O)[C@]1(C#N)C1CC1
OUTPUT: < 100 nM

INPUT: What about C[C@@H]1CN(c2nc(-c3cnc4[nH]ccc4c3)cn3nccc23)C(=O)[C@]1(C#N)C1CC1 ?
OUTPUT: < 100 nM

INPUT: Next compound: C[C@@H]1CN(c2nc(-c3cnn(-c4ccncc4)c3)cn3nccc23)C(=O)[C@]1(C#N)C1CC1
OUTPUT: < 100 nM

INPUT: Same read-out for C[C@@H]1CN(c2nn(-c3cccc(=O)n3C)c3cnccc23)C(=O)[C@]1(C#N)C1CC1 ?
OUTPUT: > 10000 nM

INPUT: Consider next the compound COc1ncc(-c2cn3nccc3c(N3C[C@@H](C)[C@@](C#N)(C4CC4)C3=O)n2)cc1C#N [Example 262, trifluoroacetate] in the same way.
OUTPUT: > 10000 nM

INPUT: Try this compound next: C[C@@H]1OC[C@@H]1n1cc(-c2cn3ncc(F)c3c(N3C[C@@H](C)[C@@](C#N)(C4CC4)C3=O)n2)cn1 (relative stereo)
OUTPUT: < 100 nM

INPUT: Subsequent entry: C[C@@H]1CN(c2ccnn3cc(-c4cnn(C5CCN(C)CC5)c4)cc23)C(=O)[C@]1(C#N)C1CC1
OUTPUT: < 100 nM
